Test system: ULK2;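 further: KINOMEscan kinase panel screen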
Conditions: concentration: 1 μM, replicates: in singlicate; n = 1
Parameter: %Inh
Form field: result (number plus unit)

Worked cases, %Inh given:
> print(dat)
                                   compound  parameter  result
1  COc1cc(Nc2ccnc3cc(-c4ccncc4)ccc23)cc(OC)c1OC.Cl       %Inh      0%
2  Nc1ncc(-c2cn[nH]c2)c2scc(-c3ccc4c(c3)CCN4C(=O)Cc3ccccc3)c12       %Inh      0%
3  Cl.O=C(Nc1ccc(Oc2ccc3[nH]c(NC(=O)c4ccco4)nc3c2)cc1)Nc1cc(C(F)(F)F)ccc1F       %Inh      0%
4  Cl.Cl.NC(CNC(=O)c1cc(Br)c(-c2ccnc3[nH]ccc23)s1)c1ccccc1 (centres unmarked)       %Inh      0%

Q. Return reported %Inh; argument: N#CC1(c2cccc(C(=O)Nc3cccc(Oc4ccc5nc(NC(=O)C6CC6)sc5n4)c3)c2)CC1
A. 0%

Q. Return reported %Inh; argument: COc1ccc(NC(=O)c2ccoc2)cc1-c1ccc(C(=O)NCC2CC2)cc1
A. 28%

Q. Return reported %Inh; argument: O=C(Nc1n[nH]c2cc(-c3cccs3)ccc12)C1CC1
A. 15%

Q. Return reported %Inh; argument: Cc1cc(-c2ccnc(Nc3cccc(C#N)c3)n2)cc(C)c1O
A. 0%

Q. Return reported %Inh; argument: O=C(Nc1n[nH]c2nc(-c3ccccc3)ccc12)C1CC1
A. 3%

Q. Return reported %Inh; argument: O=C(O)C(F)(F)F.O=c1[nH]ccc2nc(N[C@@H]3CCNC3)nc(Nc3ccc4c(c3)S(=O)(=O)CC4)c12
A. 99.5%

Q. Return reported %Inh; argument: COC(=O)Nc1nc2ccc(Oc3ccc(CC(=O)Nc4cc(C(F)(F)F)ccc4F)cc3)cc2[nH]1
A. 0%

Q. Return reported %Inh; argument: c1ccc(Oc2ccc(Nc3ccnc4cc(-c5ccc(CN6CCCCC6)o5)ccc34)cc2)nc1
A. 0%

Q. Return reported %Inh; argument: O=C(Nc1c(F)cccc1F)c1cc(C(=O)c2ccccc2F)c[nH]1
A. 0%
